Values were extracted from ChEMBL document CHEMBL4325874.

Property: pKi; scope: individual molecules
biological target: Histamine H4 receptor (Homo sapiens, UniProt Q9H3N8); test: Displacement of [3H]histamine from human recombinant histamine H4 receptor expressed in CHO cell membranes after 30 mins by liquid scintillation analysis
Sequence (Q9H3N8 whole entry): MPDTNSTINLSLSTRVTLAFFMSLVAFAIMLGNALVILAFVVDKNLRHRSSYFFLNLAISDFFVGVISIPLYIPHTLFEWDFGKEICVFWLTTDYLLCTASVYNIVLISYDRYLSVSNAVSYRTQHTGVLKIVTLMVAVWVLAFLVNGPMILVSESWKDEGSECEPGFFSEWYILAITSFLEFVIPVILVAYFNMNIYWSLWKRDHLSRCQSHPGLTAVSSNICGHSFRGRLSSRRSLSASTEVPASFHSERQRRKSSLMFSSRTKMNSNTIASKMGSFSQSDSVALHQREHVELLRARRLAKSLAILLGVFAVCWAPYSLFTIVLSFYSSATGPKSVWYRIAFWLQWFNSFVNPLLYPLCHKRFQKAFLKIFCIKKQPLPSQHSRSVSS
pKi: −log10 of the molar value.

Worked cases, pKi given:
Clc1ccc(CNC[C@@H]2C[C@H]2c2nc3cc(Cl)ccc3[nH]2)cc1; < 6.00
c1ccc2[nH]c(C[C@@H]3C[C@H]3c3c[nH]cn3)nc2c1; 6.53
Clc1ccc(CNC[C@H]2C[C@H]2N2CCNCC2)cc1; < 6.00

Sample CN1CCN([C@@H]2C[C@@H]2CCNCc2ccc(Cl)cc2)CC1 ; pKi observed: < 6.00

Sample Clc1ccc(CNCC[C@@H]2C[C@H]2c2nc3cc(Cl)ccc3[nH]2)cc1 ; pKi observed: < 6.00

Sample CN1CCN([C@@H]2C[C@@H]2CNCc2ccc(Cl)cc2)CC1 ; pKi observed: < 6.00

Sample c1ccc2[nH]c(CNCC[C@@H]3C[C@H]3c3c[nH]cn3)nc2c1 ; pKi observed: 6.78

Sample Clc1ccc(CNCC[C@H]2C[C@H]2N2CCNCC2)cc1 ; pKi observed: < 6.00

Sample Clc1ccc(CNCC[C@@H]2C[C@@H]2c2cc3cc(Cl)ccc3[nH]2)cc1 ; pKi observed: < 6.00

Sample Clc1ccc(CNC[C@@H]2C[C@@H]2c2cc3cc(Cl)ccc3[nH]2)cc1 ; pKi observed: < 6.00

###

biological target: Histamine H3 receptor (Homo sapiens, UniProt Q9Y5N1); experiment: Displacement of [3H]Nalpha-methylhistamine from human recombinant histamine H3 receptor expressed in CHO cell membranes after 30 mins by liquid scintillation analysis
Sequence (Q9Y5N1 whole entry): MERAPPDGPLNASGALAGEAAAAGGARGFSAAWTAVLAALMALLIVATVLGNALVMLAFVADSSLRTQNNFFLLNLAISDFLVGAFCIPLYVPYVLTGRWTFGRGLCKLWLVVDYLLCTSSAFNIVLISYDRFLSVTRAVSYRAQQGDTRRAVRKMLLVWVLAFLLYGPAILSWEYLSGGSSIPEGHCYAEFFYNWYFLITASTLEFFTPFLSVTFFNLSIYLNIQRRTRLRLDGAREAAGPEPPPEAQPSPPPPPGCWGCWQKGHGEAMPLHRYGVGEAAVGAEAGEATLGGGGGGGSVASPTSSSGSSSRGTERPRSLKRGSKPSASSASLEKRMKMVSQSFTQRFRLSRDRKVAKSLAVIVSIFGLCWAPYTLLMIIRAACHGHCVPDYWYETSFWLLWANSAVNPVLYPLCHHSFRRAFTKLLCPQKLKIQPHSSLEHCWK
Test Readout: Ki

Worked cases, Ki given:
CN1CCN([C@@H]2C[C@@H]2CCNCc2ccc(Cl)cc2)CC1; > 1000 nM
Clc1ccc(CNC[C@@H]2C[C@@H]2c2cc3cc(Cl)ccc3[nH]2)cc1; > 1000 nM
CN1CCN([C@@H]2C[C@@H]2CNCc2ccc(Cl)cc2)CC1; > 1000 nM
c1ccc2[nH]c(CNCC[C@@H]3C[C@H]3c3c[nH]cn3)nc2c1; 52 nM

Sample Clc1ccc(CNC[C@H]2C[C@H]2N2CCNCC2)cc1 ; Ki observed: > 1000 nM

Sample Clc1ccc(CNCC[C@H]2C[C@H]2N2CCNCC2)cc1 ; Ki observed: > 1000 nM

Sample Clc1ccc(CNCC[C@@H]2C[C@H]2c2nc3cc(Cl)ccc3[nH]2)cc1 ; Ki observed: > 1000 nM

Sample Clc1ccc(CNC[C@@H]2C[C@H]2c2nc3cc(Cl)ccc3[nH]2)cc1 ; Ki observed: > 1000 nM

Sample c1ccc2[nH]c(C[C@@H]3C[C@H]3c3c[nH]cn3)nc2c1 ; Ki observed: 186 nM

Sample Clc1ccc(CNCC[C@@H]2C[C@@H]2c2cc3cc(Cl)ccc3[nH]2)cc1 ; Ki observed: > 1000 nM
